- RUN_DESCRIPTION: Clinical bioequivalence study: plasma concentrations (LC-MS-MS) and noncompartmental PK after oral tablet
- Type: in vivo, human
- CONDITIONS: human, plasma, oral, 15 mg; midazolam, peak of the mean clinical concentration-time profile over 24 hours
RECORDED_METRIC: Cmax
Please format your answer as a value with the unit trailing.

Form: compound = "Cc1ncc2n1-c1ccc(Cl)cc1C(c1ccccc1F)=NC2" ; Cmax = 90.2 ng/mL

---

- RUN_DESCRIPTION: Clinical bioequivalence study: plasma concentrations (LC-MS-MS) and noncompartmental PK after oral tablet
- Format: in vivo, human
- CONDITIONS: human, plasma, po, 2 mg, clonazepam 2 mg oral, plasma, 24 h, one value per subject (A1-A6, A8, B1-B8; B5 consumed alcohol); read-out: Concentration, individual subjects
RECORDED_METRIC: concentration at 24 h (ng/mL)
Just the number in ng/mL, nothing appended.

Form: molecule = "O=C1CN=C(c2ccccc2Cl)c2cc([N+](=O)[O-])ccc2N1" ; concentration at 24 h = 8.02

---

- RUN_DESCRIPTION: Clinical bioequivalence study: plasma concentrations (LC-MS-MS) and noncompartmental PK after oral tablet
- Format: in vivo, human
- CONDITIONS: human, plasma, po, 2 mg, clonazepam 2 mg oral, plasma, 8 h, mean ±1 SD N=14; read-out: Concentration, Referent
RECORDED_METRIC: concentration at 8 h (ng/mL)
Just the number in ng/mL, nothing appended.

Form: molecule = O=C1CN=C(c2ccccc2Cl)c2cc([N+](=O)[O-])ccc2N1 [Clonazepam, clonazepam] ; concentration at 8 h = 9.8

---

- RUN_DESCRIPTION: Clinical bioequivalence study: plasma concentrations (LC-MS-MS) and noncompartmental PK after oral tablet
- Type: in vivo, human
- CONDITIONS: human, plasma, po, 15 mg, midazolam 15 mg oral, plasma, 2 h, mean (±1 SD) N=15; read-out: Concentration, Referent
RECORDED_METRIC: concentration at 2 h (ng/mL)
Just the number in ng/mL, nothing appended.

Form: molecule = Cc1ncc2n1-c1ccc(Cl)cc1C(c1ccccc1F)=NC2 [Midazolam, midazolam] ; concentration at 2 h = 47.8

---

- RUN_DESCRIPTION: Clinical bioequivalence study: plasma concentrations (LC-MS-MS) and noncompartmental PK after oral tablet
- Type: in vivo, human
- CONDITIONS: human, plasma, oral, 2 mg; clonazepam, peak of the mean clinical concentration-time profile over 96 hours
RECORDED_METRIC: Cmax (ng/mL)
Just the number in ng/mL, nothing appended.

Form: compound = O=C1CN=C(c2ccccc2Cl)c2cc([N+](=O)[O-])ccc2N1 [Clonazepam, clonazepam] ; Cmax = 13.5

---

- RUN_DESCRIPTION: Clinical bioequivalence study: plasma concentrations (LC-MS-MS) and noncompartmental PK after oral tablet
- Format: in vivo, human
- CONDITIONS: human, plasma, po, 2 mg, clonazepam 2 mg oral, plasma, 1.5 h, mean ±1 SD N=14; read-out: Concentration, Referent
RECORDED_METRIC: concentration at 1.5 h (ng/mL)
Just the number in ng/mL, nothing appended.

Form: compound = O=C1CN=C(c2ccccc2Cl)c2cc([N+](=O)[O-])ccc2N1 [Clonazepam, clonazepam] ; concentration at 1.5 h = 13.9

---

- RUN_DESCRIPTION: Clinical bioequivalence study: plasma concentrations (LC-MS-MS) and noncompartmental PK after oral tablet
- Type: in vivo, human
- CONDITIONS: human, plasma, po, 2 mg, clonazepam 2 mg oral, plasma, 10 h, one value per subject (A1-A6, A8, B1-B8; B5 consumed alcohol); read-out: Concentration, individual subjects
RECORDED_METRIC: concentration at 10 h (ng/mL)
Just the number in ng/mL, nothing appended.

Form: compound = "O=C1CN=C(c2ccccc2Cl)c2cc([N+](=O)[O-])ccc2N1" ; concentration at 10 h = 9.31

---

- RUN_DESCRIPTION: Clinical bioequivalence study: plasma concentrations (LC-MS-MS) and noncompartmental PK after oral tablet
- Type: in vivo, human
- CONDITIONS: human, plasma, po, 15 mg, midazolam 15 mg oral, plasma, 0.25 h, mean (±1 SD) N=15; read-out: Concentration, Referent
RECORDED_METRIC: concentration at 0.25 h (ng/mL)
Just the number in ng/mL, nothing appended.

Form: molecule = Cc1ncc2n1-c1ccc(Cl)cc1C(c1ccccc1F)=NC2 [Midazolam, midazolam] ; concentration at 0.25 h = 12.2
